# experimental system: neuraminidase (NA) of recombinant influenza B/Phuket/3073/2013 D198N virus (Influenza B virus, UniProt A0A1S5RAG6, D197N)
# Format: biochemical, influenza B/Phuket/3073/2013 virus
# condition set: read-out: Neuraminidase Inhibitors IC50 values
endpoint label: IC50 (nM)
Give just the number in nM; leave the unit off.

Report measured IC50; entry is `CCC(CC)[C@H](NC(C)=O)[C@@H]1[C@H](O)[C@@H](C(=O)O)C[C@H]1N=C(N)N`
6.92

###

# experimental system: neuraminidase (NA) of recombinant influenza B/Phuket/3073/2013 I222T virus (Influenza B virus, UniProt A0A1S5RAG6, I221T)
# condition set: read-out: Neuraminidase Inhibitors IC50 values
endpoint label: pIC50
Keep in mind that pIC50 stands for -log10 of concentration in molar terms.

Retrieve pIC50 measured for `CCC(CC)[C@H](NC(C)=O)[C@@H]1[C@H](O)[C@@H](C(=O)O)C[C@H]1N=C(N)N` and print it.
7.71

###

# experimental system: neuraminidase (NA) of recombinant influenza B/Phuket/3073/2013 N294S virus (Influenza B virus, UniProt A0A1S5RAG6, N294S)
# condition set: read-out: Neuraminidase Inhibitors IC50 values
endpoint label: IC50 (µM)
// units = µM; emit number, no label

Please give measured IC50 of the following entry: CCC(CC)[C@H](NC(C)=O)[C@@H]1[C@H](O)[C@@H](C(=O)O)C[C@H]1N=C(N)N [Peramivir, peramivir]
0.0337

###

# experimental system: neuraminidase (NA) of recombinant influenza B/Phuket/3073/2013 D198E virus (Influenza B virus, UniProt A0A1S5RAG6, D197E)
# Type: biochemical, influenza B/Phuket/3073/2013 virus
# condition set: read-out: Neuraminidase Inhibitors IC50 values
endpoint label: IC50
Record the result as a number with its unit.

Identify IC50 associated with the compound CCC(CC)[C@H](NC(C)=O)[C@@H]1[C@H](O)[C@@H](C(=O)O)C[C@H]1N=C(N)N [Peramivir, peramivir]
15.5 nM

###

# experimental system: neuraminidase (NA) of recombinant influenza B/Phuket/3073/2013 H136N virus (Influenza B virus, UniProt A0A1S5RAG6, H134N)
# condition set: read-out: Neuraminidase Inhibitors IC50 values
endpoint label: pIC50
Quick note: pIC50 means taking -log10 of the concentration in moles per liter.

Give the reported pIC50 for this compound. CCC(CC)[C@H](NC(C)=O)[C@@H]1[C@H](O)[C@@H](C(=O)O)C[C@H]1N=C(N)N [Peramivir, peramivir]
6.75

###

# experimental system: neuraminidase (NA) of recombinant influenza B/Phuket/3073/2013 R152K virus (Influenza B virus, UniProt A0A1S5RAG6, R150K)
# condition set: read-out: Neuraminidase Inhibitors IC50 values
endpoint label: IC50 (nM)
Please respond with the number in nM and leave the unit unwritten.

Find the measured IC50 of `CCC(CC)[C@H](NC(C)=O)[C@@H]1[C@H](O)[C@@H](C(=O)O)C[C@H]1N=C(N)N` and report it.
423

Data credit: paper PMC6357004
